# key: entry, value: chemical recovery
- ASSAY NOTES: chemical recovery from spiked human plasma; higher = better extraction
- APPLIED CONDITIONS: pooled human plasma; extraction method: SPE only (HLB 96-well), PES comparison experiment

# COMPOUND STRING, READOUT UNIT, chemical recovery
records = [
    ("CCOc1nc2cccc(C(=O)O)c2n1Cc1ccc(-c2ccccc2-c2nnn[nH]2)cc1", "%", 36.9),
    ("O=S(=O)(O)c1cccc2ccc(O)cc12", "%", 44.7),
    ("Cc1cc(Cc2ccc(N)c(C)c2)ccc1N", "%", 24.5),
    ("Cc1cccc(C)c1N(Cn1cccn1)C(=O)C(=O)O", "%", 50.4),
    ("c1ccc2sc(N3CCOCC3)nc2c1", "%", 40.1),
]

====

- ASSAY NOTES: chemical recovery by SPE of plasma after PDMS sampling; higher = better extraction
- APPLIED CONDITIONS: pooled human plasma; extraction method: HLB SPE of plasma after PES; equilibration time (d): 1
# key: entry, value: chemical recovery by SPE of plasma

# MOLECULE, READOUT UNIT, chemical recovery by SPE of plasma
measured = [
    ("CC(Cc1ccc(C(C)(C)C)cc1)CN1C[C@@H](C)O[C@@H](C)C1 (stereo partly drawn)", "%", 0.124),
    ("COc1cc([C@@H]2c3cc4c(cc3[C@@H](O[C@@H]3O[C@@H]5CO[C@@H](C)O[C@H]5[C@H](O)[C@H]3O)[C@H]3COC(=O)[C@H]23)OCO4)cc(OC)c1O [Etoposide]", "%", 36.8),
    ("Oc1ccc(Cl)cc1Cc1cc(Cl)ccc1O", "%", 53.2),
    ("O=c1c(-c2ccc(O)cc2)coc2cc(O)cc(O)c12", "%", 46.2),
    ("COCCCC/C(=N\\OCCN)c1ccc(C(F)(F)F)cc1", "%", 1.45),
    ("O=C(Nc1ccc(Cl)cc1)Nc1ccc(Cl)c(Cl)c1", "%", 29.8),
    ("COc1c(C)c2c(c(O)c1C/C=C(\\C)CCC(=O)O)C(=O)OC2", "%", 48.6),
    ("Clc1ccc2ccccc2c1", "%", 3.42),
    ("COC(=O)c1cc(C(=O)OC)cc(S(=O)(=O)O)c1 [Dimethyl-5-sulfoisophthalate]", "%", 49.8),
    ("O=c1[nH]c2ccccc2s1 [2-Hydroxybenzothiazole]", "%", 36.2),
    ("C#C[C@]1(OC(C)=O)CC[C@H]2[C@@H]3CCC4=CC(=NO)CC[C@@H]4[C@H]3CC[C@@]21CC (mixture of isomers) [Norgestimate]", "%", 1.42),
    ("CCC1=C(C)CN(C(=O)NCCc2ccc(S(=O)(=O)NC(=O)NC3CCC(C)CC3)cc2)C1=O (stereo not drawn) [Glimepiride]", "%", 46.6),
    ("Brc1ccc(Oc2cc(Br)c(Br)cc2Br)c(Br)c1", "%", 1.13),
    ("CCNc1nc(NC(C)C)nc(SC)n1", "%", 24.3),
    ("CN(C)CCC=C1c2ccccc2CCc2ccccc21", "%", 0.152),
    ("CCOC(=O)c1ccc(N)cc1", "%", 14.6),
    ("C[C@]12CCC(=O)C=C1CC[C@@H]1[C@@H]2CC[C@@]2(C)[C@H]1CC[C@]2(C)O", "%", 7.99),
    ("O=C(c1ccc(OCCN2CCCCC2)cc1)c1c(-c2ccc(O)cc2)sc2cc(O)ccc12", "%", 41.3),
]
